Target: human orexin-2 receptor (Homo sapiens (Human))
Sequence (O43614 whole entry): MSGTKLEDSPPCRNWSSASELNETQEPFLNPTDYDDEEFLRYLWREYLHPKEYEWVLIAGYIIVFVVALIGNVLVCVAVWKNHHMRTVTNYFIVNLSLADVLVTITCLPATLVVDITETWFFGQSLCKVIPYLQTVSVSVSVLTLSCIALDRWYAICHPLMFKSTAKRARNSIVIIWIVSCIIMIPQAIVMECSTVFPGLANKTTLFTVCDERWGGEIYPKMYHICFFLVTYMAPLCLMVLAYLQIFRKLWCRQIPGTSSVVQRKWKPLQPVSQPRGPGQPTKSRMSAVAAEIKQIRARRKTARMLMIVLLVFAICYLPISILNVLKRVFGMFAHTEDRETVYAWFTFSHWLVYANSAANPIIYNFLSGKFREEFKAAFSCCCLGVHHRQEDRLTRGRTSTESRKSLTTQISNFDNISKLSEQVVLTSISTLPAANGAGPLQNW
Experiment: In vitro assay: intracellular calcium measurements (FLIPR), antagonistic activity
Conditions: CHO cells expressing human orexin-2 receptor, orexin-A agonist, geometric mean, read-out: IC50 Ox2
Method: In Vitro Assay: Intracellular Calcium Measurements: […] Within the Fluorescent Imaging Plate Reader (FLIPR Tetra, Molecular Devices), antagonists are added to the plate in a volume of 10 μl/well, incubated for 120 min and finally 10 μl/well of agonist is added. […] The calculated IC50 values may fluctuate depending on the daily cellular assay performance. […]
measured metric: IC50 (nM)

Example molecules with recorded IC50:
molecule: Cc1nc(C(=O)N2CCC[C@@]2(C)c2nc3c(F)c(F)ccc3[nH]2)c(-c2ccccc2)s1
IC50 (nM): 117
//
molecule: Cc1ccc(-c2ncccn2)c(C(=O)N2CCC[C@@]2(C)c2nc3cc(F)c(Br)cc3[nH]2)c1
IC50 (nM): 97
//
molecule: C=C1C[C@@H](c2nc3cc(C(C)(C)C)ccc3[nH]2)N(C(=O)c2ccc(C)cc2-n2nccn2)C1
IC50 (nM): 4
//
molecule: Cc1nc(C(=O)N2CCC[C@H]2c2nc3c(C)c(Cl)ccc3[nH]2)c(-c2ccccc2)s1
IC50 (nM): 7
//
molecule: COc1ccc2[nH]c([C@@H]3CCCN3C(=O)c3c(-n4nccn4)ccc(C)c3F)nc2c1
IC50 (nM): 19

1 = CSc1ccc2nc([C@@H]3CCCN3C(=O)c3nc(C)sc3-c3cccc(F)c3)[nH]c2c1
2 = Cc1ccc(-c2ccccc2)c(C(=O)N2CC[C@H](C)[C@H]2c2nc3c(C)c(Cl)ccc3[nH]2)c1
Request: Between 1 and 2 , which one shows the larger IC50 value? Please respond with the label that marks your chosen entry.
Response: 2
(2: 457 nM, 1: 73 nM)

1 = Cc1ccc(-c2ccc(C)cc2C(=O)N2CCC[C@@]2(C)c2nc3cc(C(F)(F)F)ccc3[nH]2)cc1
2 = COc1cc2nc([C@]3(C)CCCN3C(=O)c3cc(Cl)ccc3-n3nccn3)n(C)c2cc1OC
3 = C=C1CC(c2nc3cccc(Cl)c3[nH]2)N(C(=O)c2nc(C3CC3)sc2-c2cccc(C)c2)C1 (racemic)
Request: Ordering criterion: IC50; begin with the maximum. Please write the labels in the order that was asked for.
Response: 1, 2, 3
